TEST SYSTEM: GABA
ASSAY PROCEDURE: NIMH-PDSP binding affinity panel
PROTOCOL CONDITIONS: read-out: affinity
pKi: −log10 of the molar value.
QUANTITY KIND: pKi

I'd like to know its pKi. The compound in question is "COc1ccc(N(C)c2nc(C)nc3ccccc23)cc1"
< 5.00

====

TEST SYSTEM: KOP (Homo sapiens, UniProt P41145)
Sequence (P41145 whole entry): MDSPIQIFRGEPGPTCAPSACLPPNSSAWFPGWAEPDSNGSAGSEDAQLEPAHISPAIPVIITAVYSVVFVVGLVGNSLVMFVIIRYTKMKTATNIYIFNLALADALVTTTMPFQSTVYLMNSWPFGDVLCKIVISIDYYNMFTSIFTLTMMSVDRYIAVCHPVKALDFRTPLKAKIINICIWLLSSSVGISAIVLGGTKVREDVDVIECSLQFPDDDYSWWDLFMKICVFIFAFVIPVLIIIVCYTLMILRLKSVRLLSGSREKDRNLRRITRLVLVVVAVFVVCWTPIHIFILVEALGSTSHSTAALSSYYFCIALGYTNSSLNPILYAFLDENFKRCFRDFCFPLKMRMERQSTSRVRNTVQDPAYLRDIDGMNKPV
QUANTITY KIND: Ki

I'd like to know its Ki. The compound in question is "COc1ccc(N(C)c2nc(C)nc3ccccc23)cc1"
> 10 µM

====

TEST SYSTEM: I
ASSAY PROCEDURE: NIMH-PDSP binding affinity panel
PROTOCOL CONDITIONS: read-out: affinity
pKi: −log10 of the molar value.
QUANTITY KIND: pKi

# value lookup — system I, readout pKi, item "COc1ccc(N(C)c2nc(C)nc3ccccc23)cc1"
< 5.00
